system: human red blood cells (hRBCs); assay: K+ leakage from hRBCs (flame atomic emission); assay type: cell-based
MEASURED_PROPERTY: KC50 (50% K+ ion leakage relative to 1% TritonX-100)

Req: Returns the measured KC50 (50% K+ ion leakage relative to 1% TritonX-100) for the input molecule. Input: CC(C)C[C@@H](NC(=O)[C@H](C)NC(=O)CNC(=O)[C@@H](NC=O)C(C)C)C(=O)N[C@@H](C)C(=O)N[C@@H](C(=O)N[C@H](C(=O)N[C@@H](C(=O)N[C@@H](Cc1c[nH]c2ccccc12)C(=O)N[C@H](CCCCN)C(=O)N[C@@H](Cc1c[nH]c2ccccc12)C(=O)N[C@H](CCCCN)C(=O)N[C@@H](Cc1c[nH]c2ccccc12)C(=O)N[C@H](CCCCN)C(=O)N[C@@H](Cc1c[nH]c2ccccc12)C(=O)NCCO)C(C)C)C(C)C)C(C)C (racemic)
Resp: >100 µM
